# Assay explanation: RP, Thermo Scientific Acclaim RSLC 120 C18, 100 × 2.1 mm, 2.2 µm, 30 °C, 0.2 mL/min, estimated dead time 1.1 min; A: 90% water + 10% methanol + 0.01% formic acid + 5 mM ammonium formate, pH 3.61; B: methanol + 0.01% formic acid + 5 mM ammonium formate, pH 3.61; gradient (min/%B) 0/1 1/1 2/39 13/99.9 15/99.9 15.1/1 20.1/1
# Cond: stereoisomer not certain
Recorded endpoint: LC retention time (min)
I only need the number, in min, no unit after it.

// solved cases for LC retention time follow
c1ccc(CN2CCNCC2)cc1 | 4.23
CC(C)(C)NCC(O)c1ccc(O)c(NC(N)=O)c1 (centres undefined) | 2.89
Cc1ccc(C(=O)c2cn(CCCCCO)c3ccccc23)c2ccccc12 | 10.6
O=C1CN=C(c2ccccc2)c2cc(Cl)ccc2N1 | 9.23

Ask: GET /values?readout=LC retention time&item= "OCCN1CCN(CCCN2c3ccccc3C=Cc3ccccc32)CC1"
Reply: 7.83

Ask: GET /values?readout=LC retention time&item= O=C1C(CCS(=O)c2ccccc2)C(=O)N(c2ccccc2)N1c1ccccc1 (centres undefined)
Reply: 7.94

Ask: GET /values?readout=LC retention time&item= "Nc1ccc([N+](=O)[O-])cc1C(=O)c1ccccc1"
Reply: 8.99

Ask: GET /values?readout=LC retention time&item= "CCNc1nc(Cl)nc(NC(C)(C)C#N)n1"
Reply: 6.55

Ask: GET /values?readout=LC retention time&item= N#CC1CCCN1C(=O)CNC12CC3CC(CC(O)(C3)C1)C2 (centres undefined)
Reply: 3.26

* * *

# Assay explanation: RP, Thermo Scientific Acclaim RSLC 120 C18, 100 × 2.1 mm, 2.2 µm, 30 °C, 0.2 mL/min, estimated dead time 1.1 min; A: 90% water + 10% methanol + 0.01% formic acid + 5 mM ammonium formate, pH 3.61; B: methanol + 0.01% formic acid + 5 mM ammonium formate, pH 3.61; gradient (min/%B) 0/1 1/1 2/39 13/99.9 15/99.9 15.1/1 20.1/1
# Cond: stereoisomer not certain
Recorded endpoint: LC retention time (min)
I only need the number, in min, no unit after it.

// solved cases for LC retention time follow
CON=C(C(=O)NC1C(=O)N2C(C(=O)[O-])=C(C[n+]3cccc4c3CCCC4)CSC12)c1csc(N)n1 (configuration not stated) | 3.76
Fc1ccc(Oc2ccnc3cc(Cl)cc(Cl)c23)cc1 | 12.8
CC1C(c2ccccc2)OCCN1C (configuration not stated) | 4.06
CC(C)C(=O)C1(C(=O)Nc2ccccc2)OC1(C(=O)c1ccc(F)cc1)c1ccccc1 (configuration not stated) [Atorvastatin IMP D (epoxide)] | 10.3
CCCCCn1cc(C(=O)Cc2ccccc2C)c2ccccc21 | 12.2

Ask: GET /values?readout=LC retention time&item= "CCCCCn1cc(C(=O)c2cccc3ccccc23)cc1-c1ccccc1C"
Reply: 13.4

* * *

# Assay explanation: RP, Thermo Scientific Acclaim RSLC 120 C18, 100 × 2.1 mm, 2.2 µm, 30 °C, 0.2 mL/min, estimated dead time 1.1 min; A: 90% water + 10% methanol + 0.01% formic acid + 5 mM ammonium formate, pH 3.61; B: methanol + 0.01% formic acid + 5 mM ammonium formate, pH 3.61; gradient (min/%B) 0/1 1/1 2/39 13/99.9 15/99.9 15.1/1 20.1/1
# Cond: stereoisomer not certain
Recorded endpoint: LC retention time (min)
I only need the number, in min, no unit after it.

// solved cases for LC retention time follow
COc1ccc2c3c1OC1C(=O)CCC4C(C2)N(C)CCC314 (centres undefined) [Hydrocodone] | 3.69
CN1CCCC1=O | 3.1
CCc1cc(OC)c(CCN)cc1OC | 6.48

Ask: GET /values?readout=LC retention time&item= "c1ccc2[nH]c(-c3cscn3)nc2c1"
Reply: 6.15

Ask: GET /values?readout=LC retention time&item= "CC(=O)N(C)N(C(=O)C(=O)N(C)C)c1ccccc1"
Reply: 5.06

Ask: GET /values?readout=LC retention time&item= CCC(=O)OC(Cc1ccccc1)(c1ccccc1)C(C)CNC (centres undefined)
Reply: 7.84

Ask: GET /values?readout=LC retention time&item= CC1C(c2ccc(Cl)cc2)SC(=O)N1C(=O)NC1CCCCC1 (centres undefined)
Reply: 12.6

Ask: GET /values?readout=LC retention time&item= CCOP(=S)(OCC)SCS(=O)C(C)(C)C (centres undefined) [Terbufos-sulfoxide]
Reply: 9
